SUBJECT_OF_TEST: Carbonic anhydrase 2 (Homo sapiens) (UniProt P00918)
EXPERIMENTAL_DETAILS: compounds binding carbonic anhydrase 2 – biochemical, small-molecule microarray, Alexa647-labelled CAII, profiling panel (AID 1122)
CONDITION_NOTES: CAII-A647 binding fluorescence, higher = more signal

MOLECULE	composite z-score
CCCCCCCCCCC(O)C1C=CC2C(=O)N(c3ccccc3)C(=O)C2N1Nc1ccc(C#N)cc1 (stereo unspecified)	0.562
COC(=O)[C@@]1(Cc2ccc(OC)cc2)[C@H]2c3cc(C(=O)N4CCCC4)n(CCc4c[nH]c5ccc(O)cc45)c3C[C@H]2CN1C(=O)c1ccccc1	0.774
C=CCC(OC(C)=O)[C@@H]1[C@@H](N(Cc2ccc(-c3cccc(C(F)(F)F)c3)o2)C(=O)c2ccc(-c3ccccc3)cc2)c2cc(OCCCO)ccc2N1C(=O)Cc1ccc2ccccc2c1 (stereo partly specified)	-0.177
COc1ccc(CCNC(=O)[C@@H]2c3ccccc3C(=O)N(C3CCCCC3)[C@H]2c2ccc(CO)cc2)cc1	0.608
CC1CC/C=C\[C@H]2OC34C=CCN(C(C)C)C(=O)[C@H]3N(CCO)C(=O)[C@@H]4C2C(=O)O1 (stereo partly specified)	0.933
Cc1ccc(S[C@]2(C(=O)O)CC(=O)N(C3CCCCC3)[C@@H]2c2ccc(CO)cc2I)cc1	0.331
CN1C2C=C(CCCO)C(C3C(=O)N(C(N)=O)C(=O)C32)C1C1CC1 (stereo unspecified)	0.234
COc1cc2c(cc1O)C(c1ccc(CN3CCCC3)cc1)N(Cc1cc3c(cc1Br)OCO3)CC2 (stereo unspecified)	0.891
C=C[C@H](C)[C@H](OC(=O)Nc1ccc(SC)cc1)c1ccc(OCCO)cc1	0.575
CCCCN1CC=CC23O[C@@H]4/C=C\CCC(C)OC(=O)C4[C@H]2C(=O)N(CCCO)[C@@H]3C1=O (stereo partly specified)	0.283
COc1ccc(CCNC(=O)[C@@]2(Cc3ccccc3I)c3ccccc3C(=O)N(C3CCCCC3)[C@H]2c2ccc(CO)cc2)cc1	0.218
CO[C@H]1O[C@H](CO)[C@@H](OC(=O)Nc2ccc3c(c2)OCO3)[C@H](OC(=O)Nc2ccc3c(c2)OCO3)[C@@H]1OC(=O)Nc1ccc2c(c1)OCO2	0.572
COC(=O)[C@@]1(Cc2ccc(F)cc2)[C@H]2c3cc(C(=O)N4CCCC4)n(Cc4ccc(C)c(F)c4F)c3C[C@H]2CN1C(=O)c1ccccc1	0.834
C=C[C@@H](CO)N(Cc1ccc(OC)cc1)S(=O)(=O)c1ccc(Br)cc1	0.352
CN(C)C(=O)[C@]1(CCC(=O)OC(C)(C)C)N=C(c2ccc(OCCCO)cc2)O[C@@H]1c1ccccc1CN=[N+]=[N-]	0.673
CCCCCC1=C2CNC(C)(C(=O)OC)C=C2C(C)C1=O (stereo unspecified)	0.839
C=CC[C@]1(C(=O)N2CCOCC2)COC(c2ccc(OCCCO)cc2)=N1	0.777
CC[C@@H]1O[Si](C(C)C)(C(C)C)c2c1cc(-c1cc(C)c(OC)c(C)c1)nc2-c1ccc(Oc2ccccc2)cc1	-0.272
CCOC(=O)C[C@H]1[C@H](OC(=O)c2ccc(-c3ccccc3)cc2)[C@@H](NC(=O)CC(C)C)c2cc(OCCCO)ccc2N1C(=O)c1ccc2ccccc2n1	0.0808
CCOC(=O)C1=C[C@@H](c2ccccc2)N(S(=O)(=O)c2ccc(C)cc2)[C@H]1c1ccc(OC)cc1	0.614
CS(=O)(=O)CCOC(=O)C1=CC(CCCO)=CC(c2ccc(CN3CCCC3)cc2)N(Cc2sc3ccccc3c2Cl)C=C1C(=O)OCCS(C)(=O)=O (stereo unspecified)	0.823
COc1ccc([Si](C)(C)[C@@H]2[C@@H](CCO)O[C@]3(C(=O)N(Cc4ccccc4)c4ccc(N5CCOC5=O)cc43)[C@H]2C)cc1	0.324
CCCCC(O)C1C=CC2C(=O)N(C)C(=O)C2N1N(c1ccccc1)c1ccccc1 (stereo unspecified)	0.797
CC(C)=C1C(=O)C(c2ccccc2)=C2CN3C(=O)N(CCc4ccccc4)C(=O)[C@]3(Cc3ccc(C(F)(F)F)cc3)[C@H]21	0.368
CN(C)C(=O)[C@]1(Cc2ccccc2CN=[N+]=[N-])N=C(c2ccc(OCCCO)cc2)O[C@@H]1c1ccccc1	0.402
COc1ccc(C#Cc2ccc3c(c2)[C@]2(C(=O)N3)[C@H](c3ccc(OCCO)cc3)N3[C@H](c4ccccc4)[C@H](c4ccccc4)OC(=O)[C@H]3[C@@H]2C(=O)NC[C@H](O)c2ccccc2)cc1	0.496
COC(=O)C1=CC(CCCO)=CC(c2cccs2)N(Cc2cccc(OC(F)(F)F)c2)C=C1C(=O)OC (stereo unspecified)	0.834
Oc1ccc2cc[n+](Cc3cc4c(cc3Br)OCO4)cc2c1	0.908
NCCCCCCNC(=O)[C@@H]1C[C@@H]2C(=O)N[C@@H](CCCCN)C(=O)N2[C@@H]1c1ccc(O)cc1	0.782
COc1cc2c(cc1O)C(C1CC1)N(C)CC2 (stereo unspecified)	0.902
CCCNC(=O)[C@@]1(Sc2ccc(C)cc2)CC(=O)N(C2Cc3ccccc3C2)[C@@H]1c1ccc(CO)cc1I	0.427

Source of measurements: PubChem BioAssay
